# ASSAY_PROTOCOL: Phase 1 study of a single oral dose of voxelotor in subjects with hepatic impairment: whole blood and plasma PK
# Assay type: in vivo, human
# SETUP_CONDITIONS: human, plasma, po, 1500 mg, plasma; moderate hepatic impairment; 1500 mg single oral dose; read-out: AUCt, GM (converted)
READOUT: AUC(0-t) (µg·h/mL)
Write the value in µg·h/mL as a bare number.

Item: CC(C)n1nccc1-c1ncccc1COc1cccc(O)c1C=O [voxelotor] | AUC(0-t): 252

====

# ASSAY_PROTOCOL: Clinical pharmacokinetics of voxelotor in plasma, whole blood and RBCs
# Type: in vivo, human
# SETUP_CONDITIONS: human, oral, 1500 mg; whole blood; Voxelotor 1,500 mg; read-out: AUC0-24h, Geometric Mean (% CV)
READOUT: AUC(0-t) (µg·h/mL)
Express it in µg·h/mL; write the number only.

AUC(0-t) measured on CC(C)n1nccc1-c1ncccc1COc1cccc(O)c1C=O = 3820
